Test system: Bacillus amyloliquefaciens
Assay: Antibacterial activity against Bacillus amyloliquefaciens after 24 hrs by plate colony counting method
Type: functional
measurementName: MIC
The number alone won't do; follow it with the unit.

q: Under Bacillus amyloliquefaciens: report MIC of "N#Cc1c(-c2c(Cl)cccc2Cl)nc(SCc2ccc(C(=O)NC(=S)Nc3c(Cl)cccc3Cl)cc2)[nH]c1=O" .
a: 50 µg/mL

q: Under Bacillus amyloliquefaciens: report MIC of "CCn1cc(C(=O)O)c(=O)c2cc(F)c(N3CCNCC3)cc21" .
a: 25 µg/mL

q: // fetch MIC for "N#Cc1c(-c2ccc(-c3ccccc3)cc2)nc(SCc2ccc(C(=O)NC(=S)Nc3ccccc3)cc2)[nH]c1=O" ; system: Bacillus amyloliquefaciens
a: 50 µg/mL

q: Give MIC only, for "N#Cc1c(-c2ccccc2Cl)nc(SCc2ccc(C(=O)NC(=S)Nc3ccccc3)cc2)[nH]c1=O" , using Bacillus amyloliquefaciens data.
a: 25 µg/mL

q: Report its MIC with Bacillus amyloliquefaciens as the test system: "N#Cc1c(-c2ccc(Cl)cc2)nc(SCc2ccc(C(=O)NC(=S)Nc3c(Cl)cccc3Cl)cc2)[nH]c1=O"
a: 25 µg/mL

q: Please indicate recorded MIC of "N#Cc1c(-c2ccc(-c3ccccc3)cc2)nc(SCc2ccc(C(=O)NC(=S)Nc3c(Cl)cccc3Cl)cc2)[nH]c1=O" measured with Bacillus amyloliquefaciens.
a: 50 µg/mL

q: Name the recorded MIC of "N#Cc1c(-c2ccc(Cl)cc2Cl)nc(SCc2ccc(C(=O)NC(=S)Nc3c(Cl)cccc3Cl)cc2)[nH]c1=O" , assay system Bacillus amyloliquefaciens.
a: 50 µg/mL

q: Report MIC on Bacillus amyloliquefaciens for this entry: "N#Cc1c(-c2ccccc2Cl)nc(SCc2ccc(C(=O)NC(=S)Nc3c(Cl)cccc3Cl)cc2)[nH]c1=O"
a: 25 µg/mL

q: Give MIC; test system Bacillus amyloliquefaciens; molecule "N#Cc1c(-c2ccc(-c3ccccc3)cc2)nc(SCc2ccc(CSc3nc(-c4ccc(-c5ccccc5)cc4)c(C#N)c(=O)[nH]3)cc2)[nH]c1=O"
a: 12.5 µg/mL
